measured-on: HPK1 (Homo sapiens, UniProt Q92918)
Sequence (Q92918 whole entry): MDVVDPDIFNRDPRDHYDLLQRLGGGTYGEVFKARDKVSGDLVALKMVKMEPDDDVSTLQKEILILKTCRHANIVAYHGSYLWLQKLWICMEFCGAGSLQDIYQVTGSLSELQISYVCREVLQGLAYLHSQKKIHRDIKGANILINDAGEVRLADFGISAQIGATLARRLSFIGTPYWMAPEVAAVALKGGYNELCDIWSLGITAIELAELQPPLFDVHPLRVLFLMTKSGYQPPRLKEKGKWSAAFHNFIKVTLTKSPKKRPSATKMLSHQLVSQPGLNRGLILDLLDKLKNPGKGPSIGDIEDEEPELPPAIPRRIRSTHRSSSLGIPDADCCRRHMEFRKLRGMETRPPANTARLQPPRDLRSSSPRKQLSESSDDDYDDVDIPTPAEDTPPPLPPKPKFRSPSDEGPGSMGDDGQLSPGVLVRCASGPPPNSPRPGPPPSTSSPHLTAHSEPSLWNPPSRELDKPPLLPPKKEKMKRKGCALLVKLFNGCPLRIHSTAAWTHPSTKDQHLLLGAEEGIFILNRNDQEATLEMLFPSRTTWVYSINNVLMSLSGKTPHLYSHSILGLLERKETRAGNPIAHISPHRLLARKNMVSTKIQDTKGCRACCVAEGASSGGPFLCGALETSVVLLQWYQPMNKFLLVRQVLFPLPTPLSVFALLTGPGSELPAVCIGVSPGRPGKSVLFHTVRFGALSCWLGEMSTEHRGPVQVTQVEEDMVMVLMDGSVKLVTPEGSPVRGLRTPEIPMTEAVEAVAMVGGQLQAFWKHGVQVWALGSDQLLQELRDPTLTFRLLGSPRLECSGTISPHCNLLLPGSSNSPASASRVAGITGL
quantity-name: IC50 (nM)
Write down the numeric answer in nM and omit the unit.

# input For the compound shown here, COc1cccn2c(-c3cc4c(c5c3CCNC5=O)Nc3ccc(N5CCOCC5)cc3C4(C)C)cnc12 , give the reported IC50.
# output 9.32

====

Measured pIC50 of individual entries
measured-on: pSLP76 (Phospho-SLP-76 (Ser376)), Jurkat E6-1 cells (Homo sapiens, UniProt Q92918)
Construct: read-out phospho-SLP-76 (Ser376) HTRF
Sequence (Q92918 whole entry): as above
protocol-text: Phospho-SLP-76 (Ser376) HTRF Assay in Jurkat E6-1 cells
test-conditions: compound 4 hours, then anti-CD3 20 minutes
To interpret pIC50, take it as minus log10 of a concentration measured in moles per litre.

Answered examples (4):
1) COc1cccc2c(-c3cc4c(c5c3CNC5=O)Nc3ccc(N5CCOCC5)cc3C4(C)C)cnn12 [Example 18] :: 7.18
2) COc1cccn2c(-c3cc4c(c5c3CNC5=O)Nc3ccc(N5CCOCC5)nc3C4(C)C)cnc12 [Example 20] :: 7.08
3) Cc1ccn2c(-c3cc4c(c5c(=O)[nH]ccc35)Nc3ccc(N5CCOC(C(C)(C)O)C5)cc3C4(C)C)cnc2c1F (stereo not shown) [Example 6] :: 6.79
4) CC1(C)c2cc(N3CCOCC3)ccc2Nc2c1cc(-c1cnc3cccnn13)c1c2C(=O)NC1 [Example 12] :: 7.59

# input Give recorded pIC50 with pSLP76 (Phospho-SLP-76 (Ser376)), Jurkat E6-1 cells (Homo sapiens, UniProt Q92918) for the following molecule: Cn1ccn2c(-c3cc4c(c5c3CNC5=O)Nc3ccc(N5CCOCC5)cc3C4(C)C)cnc2c1=O [Example 41]
# output 7.87

# input // repeat for CC1(C)c2cc(N3CCOCC3)ccc2Nc2c1cc(-c1cnn3cccnc13)c1c2C(=O)NC1 [Example 16] and report
# output 7.50

# input And the next one, COc1cccn2c(-c3cc4c(c5c(=O)[nH]ccc35)Nc3ccc(N5CCOC(C(C)(C)O)C5)cc3C4(C)C)cnc12 (stereo not shown) [Example 2] ?
# output 7.19
